TEST DETAILS: plasma pharmacokinetics (LC–MS/MS, noncompartmental analysis)
Format: in vivo, human
EXPERIMENTAL SETUP: human, plasma, po, 200 mg, 200 mg (n=7) Q2D oral, cycle 1 day 21, plasma, n 6; read-out: Cmax, geometric mean (%CV)
RECORDED ENDPOINT: Cmax (ng/mL)
One number for each entry, in ng/mL.

Endpoint output: Cmax of C[C@@H](NC(=O)c1ncnc(N)c1Cl)c1ncc(C(=O)Nc2cc(C(F)(F)F)c(Cl)cn2)s1 [tovorafenib] . Value?
3810

----------
TEST DETAILS: plasma pharmacokinetics (LC–MS/MS, noncompartmental analysis)
Type: in vivo, human
EXPERIMENTAL SETUP: human, plasma, po, 20 mg, 20 mg Q2D oral, cycle 1 day 21, plasma, n 3; read-out: Cmax, geometric mean (%CV)
RECORDED ENDPOINT: Cmax (ng/mL)
Answers are plain numbers, in ng/mL.

Endpoint output: Cmax of C[C@@H](NC(=O)c1ncnc(N)c1Cl)c1ncc(C(=O)Nc2cc(C(F)(F)F)c(Cl)cn2)s1 [tovorafenib] . Value?
302

----------
TEST DETAILS: plasma pharmacokinetics (LC–MS/MS, noncompartmental analysis)
Format: in vivo, human
EXPERIMENTAL SETUP: human, plasma, po, 600 mg, 600 mg QW oral, cycle 1 day 22, plasma, n 20; read-out: AUC168, geometric mean (%CV)
RECORDED ENDPOINT: AUC (µg·h/mL)
Numbers only, in µg·h/mL.

Endpoint output: AUC of C[C@@H](NC(=O)c1ncnc(N)c1Cl)c1ncc(C(=O)Nc2cc(C(F)(F)F)c(Cl)cn2)s1 . Value?
330
